test: Half life in male ICR (CD-1) mouse at 10 mg/kg, ip measured upto 24 hrs by LC-MS/MS analysis; assay type: ADME, organism-based; conditions: in vivo
MEASURED QUANTITY: half-life (h)
One number for each entry, in h.

Asked: I have this compound here, CC12c3ccc(Cl)cc3CCN1CCc1c2[nH]c2ccc(Cl)cc12 (stereo unspecified) , and I need its recorded half-life.
Given back: 3.55

====

tested on: HCT-116; assay: Antiproliferative activity against human HCT-116 cells assessed as inhibition rate at 20 uM incubated for 24 hrs by MTT assay relative to control; format: functional
MEASURED QUANTITY: inhibition at 20 µM (%)
Give bare numbers, in %.

Could I get inhibition at 20 µM for every one of these entries?
1. COc1ccc2[nH]c3c(c2c1)CCN1CCc2ccccc2C31C (configuration not stated)
2. CC12c3cc(F)ccc3CCN1CCc1c2[nH]c2ccc(Cl)cc12 (configuration not stated)
3. Cc1ccc2c(c1)CCN1CCc3c([nH]c4ccc(Cl)cc34)C21C (configuration not stated)
4. CC12c3ccc(F)cc3CCN1CCc1c2[nH]c2ccc(Cl)cc12 (configuration not stated)
5. CC12c3cc(Cl)ccc3CCN1CCc1c2[nH]c2ccc(Cl)cc12 (configuration not stated)
6. Cc1ccc2[nH]c3c(c2c1)CCN1CCc2cc(Cl)ccc2C31C (configuration not stated)

Given back:
1: 10.9; 2: 80.7; 3: 88.3; 4: 88.7; 5: 89.1; 6: 22.8

Could I get inhibition at 20 µM for every one of these entries?
1. COc1ccc2[nH]c3c(c2c1)CCN1CCc2cc(Cl)ccc2C31C (configuration not stated)
2. CC12c3ccccc3CCN1CCc1c2[nH]c2ccc(Br)cc12 (configuration not stated)
3. Cc1ccc2c(c1)C1(C)c3[nH]c4ccccc4c3CCN1C2 (configuration not stated)
4. Cc1ccc2c(c1)C1(C)c3[nH]c4ccc(Cl)cc4c3CCN1CC2 (configuration not stated)
5. Cc1ccc2c(c1)C1(C)c3[nH]c4ccc(Cl)cc4c3CCN1C2 (configuration not stated)
6. CC12c3ccccc3CCN1CCc1c2[nH]c2ccc(F)cc12 (configuration not stated)
7. CC12c3cc(O)ccc3CN1CCc1c2[nH]c2ccc(Cl)cc12 (configuration not stated)

Given back:
[66.7, 3.6, 36, 92.1, 64.6, 7.8, 26.9]

Could I get inhibition at 20 µM for every one of these entries?
1. CC12c3ccc(Cl)cc3CCN1CCc1c2[nH]c2ccc(Br)cc12 (configuration not stated)
2. CC12c3ccc(Cl)cc3CC(=O)N1CCc1c2[nH]c2ccc(Cl)cc12 (configuration not stated)
3. C[C@]12c3ccc(Cl)cc3CCN1CCc1c2[nH]c2ccc(Cl)cc12
4. CC12c3cc(F)ccc3CC(=O)N1CCc1c2[nH]c2ccc(Cl)cc12 (configuration not stated)
5. CC12c3ccccc3CCN1CCc1c2[nH]c2ccc(OCc3ccccc3)cc12 (configuration not stated)

Given back:
1. 3.6
2. 70.3
3. 81
4. 49
5. 20.4

Could I get inhibition at 20 µM for every one of these entries?
1. COc1ccc2[nH]c3c(c2c1)CCN1Cc2ccccc2C31C (configuration not stated)
2. CC12c3ccc(Cl)cc3CCN1CCc1c2[nH]c2ccc(F)cc12 (configuration not stated)

Given back:
1: 28.9; 2: 18.4

Could I get inhibition at 20 µM for every one of these entries?
1. Cc1ccc2[nH]c3c(c2c1)CCN1Cc2ccccc2C31C (configuration not stated)
2. CC12c3ccc(Cl)cc3CCN1CCc1c2[nH]c2ccc(Cl)cc12 (configuration not stated)

Given back:
43.9
89.2
